Consider the following binders; for each one, report its Kd.
Target: T1, cynomolgus ICOS-Fc (homodimeric, bivalent) (cynomolgus monkey, UniProt Q9Y6W8 21-140 (human entry))
T1 construct: also called cynoICOS-Fc; cyno ICOS-Fc; not shown: human IgG1 Fc (IgG1 backbone)
T1 chain: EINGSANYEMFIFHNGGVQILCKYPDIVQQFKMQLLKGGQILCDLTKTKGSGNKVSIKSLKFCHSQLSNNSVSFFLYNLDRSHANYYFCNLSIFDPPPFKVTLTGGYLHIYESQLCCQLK
Assay: BLI, bivalent binding to homodimeric ICOS-Fc

Provide one value: measured Kd of 36E10 (antibody, V domains shown, Armenian hamster monoclonal tested as IgG; also called hamster anti-ICOS 36E10) VH: EVQLVESGGGLVKPGGSLKLSCAASGFTFSDYWMDWVRQAPGKGLEWVGNIDEDGSITEYSPFVKGRFTISRDNVKNILYLQMNSVKSEDTATYYCTRWGRFAFDSWGQGTLVTVSS VL: DIVMTQSPSSLAVSPGDRVTINCKSSQSLLSGSFHYLTWYQQKTGQAPKLLIFYASTRHTGVPDRFMGSGSGTDFTLTINSFQTEDLGDYYCHHHYNAPPTFGPGTKLELR
< 1 pM

Provide one value: measured Kd of 16G10 (antibody, V domains shown, Armenian hamster monoclonal tested as IgG; also called hamster anti-ICOS 16G10) VH: EVQLVESGGGLVKPGGSLKLSCAASGFTFSDYWMDWVRQAPGKGLEWVGNIDHDGNIINFAPSVKGRFTISRDNAKNTLYLQMNSVKSEDTATYYCARWGHYAFDSWGQGTLVTVSS VL: DIVMTQSPSSLAVSAGDKVTINCKSSQSLLSSGYNYLIWYQQKTGQAPKLLIFYASTRHTGVPDRFIGSGSGTDFTLTITSFQTEDLGDYYCQHHYSSPPTFGPGTKLEIK
< 1 pM
